// data source = paper PMC6149814

Test: in vitro
Settings: human, Caco-2, Papp BL→AP, 100 μM, 120 min, concentration series (Table 2), n = 3
Readout name: Papp B→A at 120 min, 100 μM (×10⁻⁶ cm/s)

>>> obs_value("C[C@]12CC[C@H](O)C[C@H]1CC[C@@H]1[C@@H]2CC[C@]2(C)[C@@H](c3ccc(=O)oc3)CC[C@]12O")
1.29

* * *

Assay: Cytotoxicity in Caco-2 cells by MTT assay
Assay type: cell-based
Conditions: human, Caco-2 cells, 25 μM, 180 min, MTT
Readout name: viability at 25 µM

>>> obs_value("CC(=O)O[C@H]1C(=O)[C@@]2(C)[C@H]([C@H](OC(=O)c3ccccc3)[C@]3(O)C[C@H](OC(=O)[C@H](O)[C@@H](NC(=O)c4ccccc4)c4ccccc4)C(C)=C1C3(C)C)[C@]1(OC(C)=O)CO[C@@H]1C[C@@H]2O")
"65.3%"

* * *

Assay: in vitro
Details: human, Caco-2, Papp AP→BL, 125 μM, 120 min, concentration series (Table 2), n = 3
Readout name: Papp A→B at 120 min, 125 μM (×10⁻⁶ cm/s)

>>> obs_value("C[C@]12CC[C@H](O)C[C@H]1CC[C@@H]1[C@@H]2CC[C@]2(C)[C@@H](c3ccc(=O)oc3)CC[C@]12O")
1.64

* * *

Assay: in vitro
Conditions: human, Caco-2, Papp BL→AP, 75 μM, 180 min, time course (Table 3), n = 3
Description: Caco-2 cells (4.0 × 10^5 per mL) at the logarithmic growth were seeded into the AP (apical) side of a 24-well Transwell™ plates (Corning Inc., Cambridge, MA, USA). DMEM solution was added into the apical (AP) side (0.5 mL) and basal (BL) side (1.0 mL) of the chamber, respectively. The cell culture was maintained at 37 °C under 90% humidity and 5% CO2. […] Apparent permeability values (Papp) for the test compound was calculated according to the equation [22] […]
Readout name: Papp B→A at 180 min, 75 μM (×10⁻⁶ cm/s)

>>> obs_value("C[C@]12CC[C@H](O)C[C@H]1CC[C@@H]1[C@@H]2CC[C@]2(C)[C@@H](c3ccc(=O)oc3)CC[C@]12O")
0.99

* * *

Assay: in vitro
Details: human, Caco-2, Papp AP→BL, 75 μM, 60 min, time course (Table 3), n = 3
Procedure: Caco-2 cells (4.0 × 10^5 per mL) at the logarithmic growth were seeded into the AP (apical) side of a 24-well Transwell™ plates (Corning Inc., Cambridge, MA, USA). DMEM solution was added into the apical (AP) side (0.5 mL) and basal (BL) side (1.0 mL) of the chamber, respectively. The cell culture was maintained at 37 °C under 90% humidity and 5% CO2. […] Apparent permeability values (Papp) for the test compound was calculated according to the equation [22] […]
Readout name: Papp A→B at 60 min, 75 μM (×10⁻⁶ cm/s)

>>> obs_value("C[C@]12CC[C@H](O)C[C@H]1CC[C@@H]1[C@@H]2CC[C@]2(C)[C@@H](c3ccc(=O)oc3)CC[C@]12O [BFL, Bufalin]")
1.52

* * *

Experiment: Cytotoxicity in Caco-2 cells by MTT assay
Type: cell-based
Conditions: human, Caco-2 cells, 50, 75, 100 and 125 μM, read-out: viabilities after treatment
Readout name: viability at 180 min

>>> obs_value("C[C@]12CC[C@H](O)C[C@H]1CC[C@@H]1[C@@H]2CC[C@]2(C)[C@@H](c3ccc(=O)oc3)CC[C@]12O")
"> 95%"

* * *

Assay: in vitro
Conditions: human, Caco-2, Papp BL→AP, 50 μM, 120 min, concentration series (Table 2), n = 3
Readout name: Papp B→A at 120 min, 50 μM (×10⁻⁶ cm/s)

>>> obs_value("C[C@]12CC[C@H](O)C[C@H]1CC[C@@H]1[C@@H]2CC[C@]2(C)[C@@H](c3ccc(=O)oc3)CC[C@]12O [BFL, Bufalin]")
1.37

* * *

Experiment: in vitro
Conditions: human, Caco-2, Papp value (range over concentrations/times, text), summary of Table 2 and Table 3
Readout name: Papp

>>> obs_value("C[C@]12CC[C@H](O)C[C@H]1CC[C@@H]1[C@@H]2CC[C@]2(C)[C@@H](c3ccc(=O)oc3)CC[C@]12O")
"1.46 to 1.62 ×10⁻⁶ cm/s"

* * *

Experiment: in vitro
Conditions: human, Caco-2, apparent permeability coefficient (Papp) values (abstract), BFL in free or BPDI form
Readout name: Papp

>>> obs_value("C[C@]12CC[C@H](O)C[C@H]1CC[C@@H]1[C@@H]2CC[C@]2(C)[C@@H](c3ccc(=O)oc3)CC[C@]12O")
"> 1 ×10⁻⁶ cm/s"

* * *

Experiment: in vitro
Conditions: human, Caco-2, Papp BL→AP, 75 μM, 120 min, concentration series (Table 2), n = 3
Readout name: Papp B→A at 120 min, 75 μM (×10⁻⁶ cm/s)

>>> obs_value("C[C@]12CC[C@H](O)C[C@H]1CC[C@@H]1[C@@H]2CC[C@]2(C)[C@@H](c3ccc(=O)oc3)CC[C@]12O")
1.32

* * *

Assay: in vitro
Conditions: human, Caco-2, Papp AP→BL, 100 μM, 120 min, concentration series (Table 2), n = 3
Readout name: Papp A→B at 120 min, 100 μM (×10⁻⁶ cm/s)

>>> obs_value("C[C@]12CC[C@H](O)C[C@H]1CC[C@@H]1[C@@H]2CC[C@]2(C)[C@@H](c3ccc(=O)oc3)CC[C@]12O")
1.46

* * *

Assay: Cytotoxicity in Caco-2 cells by MTT assay
Format: cell-based
Conditions: human, Caco-2 cells, 100 μM (BPDI: containing BFL 100 μM), MTT
Readout name: viability at 180 min, 100 μM (%)

>>> obs_value("C[C@]12CC[C@H](O)C[C@H]1CC[C@@H]1[C@@H]2CC[C@]2(C)[C@@H](c3ccc(=O)oc3)CC[C@]12O")
99.1

* * *

Experiment: in vitro
Conditions: human, Caco-2, Papp BL→AP, 75 μM, 120 min, time course (Table 3), n = 3
Readout name: Papp B→A at 120 min, 75 μM (×10⁻⁶ cm/s)

>>> obs_value("C[C@]12CC[C@H](O)C[C@H]1CC[C@@H]1[C@@H]2CC[C@]2(C)[C@@H](c3ccc(=O)oc3)CC[C@]12O")
1.08

* * *

Test: Cytotoxicity in Caco-2 cells by MTT assay
Format: cell-based
Details: human; Caco-2 cells, 50 μM (BPDI: containing BFL 50 μM), 180 min, MTT
Experimental: The viability of Caco-2 cells were measured after treated for 180 min with Hanks’ balanced salts solution (HBSS) (negative control), paclitaxel (positive control, 25, 50, 75 and 100 μM), BFL (50, 75, 100 and 125 μM) and BPDI (containing BFL 50, 75, 100 and 125 μM), respectively. The cytotoxicities of free BFL and its formulation, BPDI against Caco-2 cells were tested using the 3-(4,5-dimethylthiazol-2-yl)-2,5-diphenyltetrazolium bromide (MTT) assay. […]
Readout name: viability (%)

>>> obs_value("CC(=O)O[C@H]1C(=O)[C@@]2(C)[C@H]([C@H](OC(=O)c3ccccc3)[C@]3(O)C[C@H](OC(=O)[C@H](O)[C@@H](NC(=O)c4ccccc4)c4ccccc4)C(C)=C1C3(C)C)[C@]1(OC(C)=O)CO[C@@H]1C[C@@H]2O")
43.5

* * *

Experiment: in vitro
Conditions: human, Caco-2, Papp BL→AP, 125 μM, 120 min, concentration series (Table 2), n = 3
Readout name: Papp B→A at 120 min, 125 μM (×10⁻⁶ cm/s)

>>> obs_value("C[C@]12CC[C@H](O)C[C@H]1CC[C@@H]1[C@@H]2CC[C@]2(C)[C@@H](c3ccc(=O)oc3)CC[C@]12O")
1.35
